assayedTarget: Tyrosine-protein phosphatase non-receptor type 6 (Homo sapiens, UniProt P29350)
pIC50: −log10 of the molar value.
readout: pIC50

[in] Lab note: need pIC50 for Oc1c(O)c(Br)c(Cc2c(Br)c(O)c(O)c(Br)c2Br)c(Br)c1Br on Tyrosine-protein phosphatase non-receptor type 6 (Homo sapiens, UniProt P29350), anyone have it?
[out] < 4.30

---

assayedTarget: Tyrosine-protein phosphatase non-receptor type 2 (Homo sapiens, UniProt P17706)
readout: IC50

[in] Data request, read-out IC50, for Oc1c(O)c(Br)c(Cc2c(Br)c(O)c(O)c(Br)c2Br)c(Br)c1Br
[out] > 50 µM

---

assayedTarget: Tyrosine-protein phosphatase non-receptor type 1 (Homo sapiens) (UniProt P18031)
Sequence (P18031 whole entry): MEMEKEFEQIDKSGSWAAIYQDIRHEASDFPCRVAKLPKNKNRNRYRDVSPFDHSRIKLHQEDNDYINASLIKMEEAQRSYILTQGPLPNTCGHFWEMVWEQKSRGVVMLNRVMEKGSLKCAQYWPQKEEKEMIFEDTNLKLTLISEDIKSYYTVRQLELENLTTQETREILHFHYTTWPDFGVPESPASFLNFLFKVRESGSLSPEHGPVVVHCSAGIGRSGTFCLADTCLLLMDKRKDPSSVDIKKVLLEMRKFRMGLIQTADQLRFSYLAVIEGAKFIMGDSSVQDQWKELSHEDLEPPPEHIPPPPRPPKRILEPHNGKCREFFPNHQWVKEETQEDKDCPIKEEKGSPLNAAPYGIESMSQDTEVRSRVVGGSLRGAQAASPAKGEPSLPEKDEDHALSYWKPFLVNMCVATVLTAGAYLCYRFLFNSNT
testProtocol: Inhibition of GST-tagged human recombinant PTB1B using pNPP as substrate at 5 ug/ml after 3 mins
readout: inhibition (%)
One number for each entry, in %.

INSERT INTO assay_data (smilestext, numericvalue) VALUES
  ('COc1cc(C(=O)c2c(Br)c(Br)c(OC)c(OC)c2Br)c(Br)c(Br)c1OC', 50.6),
  ('Oc1cc(Cc2cc(O)c(O)c(Br)c2Br)c(Br)c(Br)c1O', 38.9);

Batch request: inhibition for each of the following compounds.
1. COc1cc(Cc2c(Br)c(Br)c(OC)c(OC)c2Br)c(Br)c(Br)c1OC
2. COc1c(Br)c(Br)c(Cc2c(Br)c(Br)c(OC)c(OC)c2Br)c(Br)c1OC

[out]
1. 49.3
2. 37.9

Consider the following items and state reported inhibition for each.
1. Oc1c(O)c(Br)c(Cc2c(Br)c(O)c(O)c(Br)c2Br)c(Br)c1Br
2. O=C(c1cc(O)c(O)c(Br)c1Br)c1c(Br)c(O)c(O)c(Br)c1Br

[out]
1. 86.7
2. 72.1

Return reported inhibition values for all items listed beneath this line.
1. COc1cc(Cc2cc(OC)c(OC)c(Br)c2Br)c(Br)c(Br)c1OC
2. O=C(c1c(Br)c(O)c(O)c(Br)c1Br)c1c(Br)c(O)c(O)c(Br)c1Br
3. Oc1cc(Cc2c(Br)c(O)c(O)c(Br)c2Br)c(Br)c(Br)c1O
4. COc1cc(Br)c(Cc2cc(OC)c(OC)c(Br)c2Br)cc1OC
5. COc1c(Br)c(Br)c(C(=O)c2c(Br)c(Br)c(OC)c(OC)c2Br)c(Br)c1OC

[out]
1: 28.9; 2: 29.2; 3: 45.3; 4: 40.2; 5: 47.8

---

assayedTarget: Tyrosine-protein phosphatase non-receptor type 1 (Homo sapiens)
Sequence (P18031 whole entry): as above
testProtocol: Inhibition of GST-tagged human recombinant PTB1B using pNPP as substrate after 3 mins
readout: pIC50
Numbers only, as −log10 of the molar value.

INSERT INTO results (smilestext, readout, numericvalue) VALUES
  ('Oc1c(O)c(Br)c(Cc2c(Br)c(O)c(O)c(Br)c2Br)c(Br)c1Br', 'pIC50', 6.17);

For each of the compounds below, note its pIC50.
1. O=C(c1cc(O)c(O)c(Br)c1Br)c1c(Br)c(O)c(O)c(Br)c1Br
2. Oc1cc(Cc2cc(O)c(O)c(Br)c2Br)c(Br)c(Br)c1O
3. COc1cc(C(=O)c2c(Br)c(Br)c(OC)c(OC)c2Br)c(Br)c(Br)c1OC
4. COc1c(Br)c(Br)c(C(=O)c2c(Br)c(Br)c(OC)c(OC)c2Br)c(Br)c1OC

[out]
1: 5.61; 2: 5.62; 3: 5.49; 4: 5.69

Values from ChEMBL document CHEMBL2016568
